Test system: DU-145
Experiment: NCI tumour cell line growth inhibition, 48 h
Calls of active or inactive are those of the source. Cut-off read from the data, not from the text of the source: active = GI50 up to about 1.1 µM and inactive = higher.
Would you kindly list GI50 for each of these compounds?

Which value of GI50 has been reported for COC(=O)C1(Cc2ccc3c(c2)CCC3)Cc2ccc3c(c2C1O)CCC3 (stereo unspecified) in the records?
11.8 µM (inactive)

Entry COc1cccc(C2c3cc4c(cc3OC(N3CCOCC3)C2C)OCO4)c1 (stereo unspecified) has what GI50?
31.8 µM (inactive)

Query (compound): CCOP(=O)(OCC)[C@H](O)c1ccsc1 ; field requested: GI50
> 100 µM (inactive)

For the compound C#CCN(Cc1ccc2nc(-c3ccccc3)c(Cl)nc2c1)c1ccc(F)cc1 , what GI50 is on record?
95.7 µM (inactive)

Given the compound O=S(=O)(O)CCS , what is its reported GI50?
> 100 µM (inactive)

Suppose we examine the compound O=c1cc(O)c1=O ; what GI50 value has been reported?
> 100 µM (inactive)
